measuredOn: Tyrosine-protein phosphatase YopH [Yersinia enterocolitica]
experimentSummary: potency against Yersinia YopH phosphatase – biochemical, 10-point dose range, dose response (AID 1261)
measurementSetup: YopH phosphatase enzymatic assay, IC50, 3 runs; inhibition; at 50 µM; stronger effect = higher value
Results filed as inconclusive are left out.
inhibition reference
# number only, unit % dropped from output

Recorded results for 5 molecules are shown here.
- CN(C(=O)COc1ccc(C(C)(C)C)cc1)C1CCS(=O)(=O)C1 (centres undefined): -19.1
- CCn1c(-c2cc(OC)c(OC)c(OC)c2)n[nH]c1=S: -24
- CCOC(=O)COc1cc(=O)n(CC)c2ccccc12: -3.72
- O=C(CSc1nnc(-c2ccccc2)o1)n1c2c(c3ccccc31)CCCC2: -10.9
- COC(=O)CSc1nnc(CNC(=O)c2cccc(C)c2)n1-c1ccccc1OC: -14.7

State the recorded inhibition for this entry: Nc1nnc2c(n1)CCCC2 23

State the recorded inhibition for this entry: O=C(/C=C/c1ccc(O)cc1)c1ccc(NC2=C(N3CCCCC3)C(=O)c3ccccc3C2=O)cc1 18.9

State the recorded inhibition for this entry: Cc1ccc(CSCCNC(=O)CN2C(=O)c3ccccc3S2(=O)=O)cc1 -6.7

State the recorded inhibition for this entry: Cc1ccc(C(c2sc3nc(C)nn3c2O)N2CCOCC2)cc1 (centres undefined) -10.3

State the recorded inhibition for this entry: COc1ccccc1NC(=O)N1CCC(C(=O)c2ccc(F)cc2)CC1 -5.37

State the recorded inhibition for this entry: CCN(CC)c1ccc(/C=N/Nc2cccc(C)c2)c(O)c1 9.95

State the recorded inhibition for this entry: CC1=CC(=C(C#N)c2nc3ccccc3s2)C=C(C)N1c1ccc(F)cc1F 1.55

State the recorded inhibition for this entry: Oc1ccc(C=Nc2ccc3ncccc3c2)c(O)c1 -3.62

###

measuredOn: Tyrosine-protein phosphatase YopH [Yersinia enterocolitica]
experimentSummary: potency against Yersinia YopH phosphatase – biochemical, 10-point dose range, dose response (AID 1261)
measurementSetup: YopH phosphatase enzymatic assay, IC50, 3 runs; inhibition; at 50 µM; stronger effect = higher value
Results filed as inconclusive are left out.
inhibition reference
# number only, unit % dropped from output

Recorded results for 3 compounds are shown here.
* CC1CCN(CCC(=O)N2CCCc3c2c(=O)oc2ccc(O)cc32)CC1 | -1.24
* Cc1cc(C)nc(SCC(=O)Oc2ccc3oc(=O)cc(C)c3c2)n1 | -24.4
* Cc1ccc(S(=O)(=O)N2CCCC(C(=O)NCc3ccco3)C2)cc1Cl (stereo not given) | 12.9

State the recorded inhibition for this entry: C=CCc1cccc2cc(C(=O)Nc3ccc(S(=O)(=O)Nc4nnc(CC)s4)cc3)c(=O)oc12 23.8

State the recorded inhibition for this entry: CCOc1cc(CNc2ccc(N3CCCC3)cc2)cc(Cl)c1OC -6.54

State the recorded inhibition for this entry: CCCCOC(=O)C1=C(C)NC2(O)c3ccccc3C(=O)C12O (stereo not given) 36.9

State the recorded inhibition for this entry: O=C(CN1C(=O)C2CC=CCC2C1=O)Nc1nnc(SCc2ccc(Cl)cc2)s1 (stereo not given) -4.26

State the recorded inhibition for this entry: Cc1ccc(N2C(=O)[C@@H]3[C@H](C2=O)C2c4ccccc4C=CN2[C@@H]3C(=O)c2ccco2)c(C)c1 (stereo not given in full) 20.7

State the recorded inhibition for this entry: O=C1CCC(=O)N1CC(=O)N1c2ccccc2Sc2ccccc21 -12.5

State the recorded inhibition for this entry: COc1ccc(CCN2C(=O)c3ccncc3C2=O)cc1OC 0.113

###

measuredOn: Tyrosine-protein phosphatase YopH [Yersinia enterocolitica]
experimentSummary: potency against Yersinia YopH phosphatase – biochemical, 10-point dose range, dose response (AID 1261)
measurementSetup: YopH phosphatase enzymatic assay, IC50, 3 runs; inhibition; at 50 µM; stronger effect = higher value
Inconclusive results are not listed.
endpointLabel: inhibition (%)
# number only, unit % dropped from output

Recorded results for 4 compounds are shown here.
• S=c1[nH]nc(-c2ccccc2)n1/N=C/C=C/c1ccco1 = 3.47
• O=c1[nH]c(Nc2ccc(F)cc2)cc2ccccc12 = 28.2
• Cc1ccc(NC(=O)c2ccnc(C(C)(C)C)c2)cc1 = -1.22
• CCN(CC)c1ccc(/C=N/Nc2ccc(C)cc2)c(O)c1 = 9.55

State the recorded inhibition for this entry: CCOC(=O)c1oc2ccc(Br)cc2c1CSc1nnc(C)s1 -12.1

State the recorded inhibition for this entry: COc1ccc(CN2C(=O)c3ccccc3C(/C=N\OCc3ccc(F)cc3)C2=O)cc1 (stereo not drawn) 3.35

State the recorded inhibition for this entry: CCC(=O)N1Cc2ccccc2-c2ccccc2C1=O -4.86

State the recorded inhibition for this entry: O=[N+]([O-])c1ccc(-c2csc3[n+]2CCS3)cc1 20.8

State the recorded inhibition for this entry: O=C(/C(=C(\[O-])c1ccccc1)[n+]1ccc2ccccc2c1)c1ccccc1 -13.2

State the recorded inhibition for this entry: C#CCn1cc(C=C2C(=O)c3ccccc3C2=O)c2ccccc21 11.1

###

measuredOn: Tyrosine-protein phosphatase YopH [Yersinia enterocolitica]
experimentSummary: potency against Yersinia YopH phosphatase – biochemical, 10-point dose range, dose response (AID 1261)
measurementSetup: YopH phosphatase enzymatic assay, IC50, 3 runs; inhibition; at 50 µM; stronger effect = higher value
Inconclusive results are not listed.
endpointLabel: inhibition (%)
# number only, unit % dropped from output

• COc1ccc(-n2nc3ccccc3n2)cc1 = -5.75
• CCOC(=O)c1ccc(NS(=O)(=O)c2cc(-c3nnnn3C(C)C)ccc2OC)cc1 = -7.2
• CCOC(=O)C1=C(C)NC2(O)c3ccccc3C(=O)C12O (stereo not given) = 40
• Cc1nc2ccccc2c(=O)n1NC(=O)c1c(O)c2c(n(CC(C)C)c1=O)CCCC2 = -4.05
• CC(=O)N1C(=O)/C(=C2\SC(=S)N(c3c(C)n(C)n(-c4ccccc4)c3=O)C2=O)c2ccccc21 = 4.95

State the recorded inhibition for this entry: CC(C)N(C(=O)COc1ccc(Br)cc1Cl)C(C)C -12.6

State the recorded inhibition for this entry: O=C(c1ccc(F)cc1)[C@@H]1[C@@H](C(=O)c2ccccc2)[C@@]2(C(=O)Nc3ccccc32)[C@H]2c3ccccc3C=CN12 13.8

State the recorded inhibition for this entry: CCOC(=O)c1nc(C)n(-c2ccc(Cl)cc2)n1 -5.92

State the recorded inhibition for this entry: CCN(CC)c1ccc(/C=N/Nc2ccccc2)c(O)c1 -13.5

State the recorded inhibition for this entry: O=C(c1cccs1)N1CCN=C1SCc1cccnc1 -11.7

###

measuredOn: Tyrosine-protein phosphatase YopH [Yersinia enterocolitica]
experimentSummary: potency against Yersinia YopH phosphatase – biochemical, 10-point dose range, dose response (AID 1261)
measurementSetup: YopH phosphatase enzymatic assay, IC50, 3 runs; inhibition; at 50 µM; stronger effect = higher value
Records with an inconclusive call do not appear.
inhibition reference
# number only, unit % dropped from output

Recorded results for 5 compounds are shown here.
* O=C1CC(N(O)c2ccccc2)C(=O)N1Cc1ccccc1 (stereo unspecified) | -4.47
* CCN(CC)c1ccc(C=Nc2ccccc2)c(O)c1 | 17.6
* CC1=CC(=C(C#N)c2nc3ccccc3s2)C=C(C)N1c1ccc(F)cc1 | 8.34
* CN1C(=O)C(Cc2cccc3ccccc23)C(=O)N(C)C1=O | 20.5
* COc1ccc(/C=N/NC(=O)C(C)n2cnc3ccccc3c2=O)cc1OC (stereo unspecified) | 8.51

Continue with the next compound.
State the recorded inhibition for this entry: CCN(CC)c1ccc(NC(=O)c2cccc(OC)c2)c(C)c1 -4.28

###

measuredOn: Tyrosine-protein phosphatase YopH [Yersinia enterocolitica]
experimentSummary: potency against Yersinia YopH phosphatase – biochemical, 10-point dose range, dose response (AID 1261)
measurementSetup: YopH phosphatase enzymatic assay, IC50, 3 runs; inhibition; at 50 µM; stronger effect = higher value
Inconclusive results are not listed.
inhibition reference
# number only, unit % dropped from output

* [O-]/[N+](=C\c1ccc(F)cc1)c1ccccc1 | 2.44
* CCOC(=O)C(NC(=O)Nc1ccccc1)(OCC)C(F)(F)F (stereo unspecified) | 2.58
* Cc1ccc(NC2=C(N3CCOCC3)C(=O)c3ccccc3C2=O)cc1 | 18
* O=c1cc(CN2CCN(c3ccccc3F)CC2)c2cc(O)c(-c3ccccc3)cc2o1 | 4.58
* O=C(OCC1O[C@@H](OC(=O)c2cc(O)c(O)c(O)c2)[C@@H](OC(=O)c2cc(O)c(O)c(O)c2)[C@@H](OC(=O)c2cc(O)c(O)c(O)c2)[C@@H]1OC(=O)c1cc(O)c(O)c(O)c1)c1cc(O)c(O)c(O)c1 (stereo partly specified) | 72.5

Continue with the next molecule.
State the recorded inhibition for this entry: COc1ccccc1N1C(C)=CC(=C(C#N)c2nc3ccccc3s2)C=C1C -2.35

###

measuredOn: Tyrosine-protein phosphatase YopH [Yersinia enterocolitica]
experimentSummary: potency against Yersinia YopH phosphatase – biochemical, 10-point dose range, dose response (AID 1261)
measurementSetup: YopH phosphatase enzymatic assay, IC50, 3 runs; inhibition; at 50 µM; stronger effect = higher value
Inconclusive results are not listed.
endpointLabel: inhibition (%)
# number only, unit % dropped from output

* CCCCn1c(N)c(NCCC(C)C)c(=O)[nH]c1=O | 33
* COc1cc(C2C(C(=O)OC(C)C)=C(C)Nc3[nH]c(=O)[nH]c(=O)c32)ccc1O (stereo not given) | 4.55
* O=C(O)C1OC(Oc2cc3oc(-c4ccccc4)cc(=O)c3c(O)c2O)C(O)C(O)C1O (stereo not given) | -26.6
* CCO/C=C1\C(=O)N(c2ccccc2)C(=O)c2ccccc21 | 39.1

State the recorded inhibition for this entry: O=C(Nc1nnc(C(F)(F)F)s1)c1ccc(N2C(=O)C3C4C=CC(C4)C3C2=O)cc1 (stereo not given) -8.43
